- PROCEDURE SUMMARY: Tissue residues of sanguinarine and chelerythrine after 3 weeks of intragastric M. cordata extracts (HPLC-MS/MS)
- EXPERIMENTAL PARAMETERS: both, SD, rat, in vivo, 5 mg/kg, Residue in spleen, 24 h after last dose, M. cordata extracts 5 mg/kg intragastric for 3 weeks
METRIC: concentration at 24 h (ng/g)
Just the number please, in ng/g, no unit attached.

q: Hello, please tell me recorded concentration at 24 h for this one: `C[n+]1cc2c3c(ccc2c2ccc4cc5c(cc4c21)OCO5)OCO3`
a: 2.01

====

- PROCEDURE SUMMARY: in vivo
- EXPERIMENTAL PARAMETERS: both, SD, rat, in vivo, Concentration in spleen
METRIC: concentration at 24 h

q: Hello, please tell me recorded concentration at 24 h for this one: `COc1ccc2c(c[n+](C)c3c4cc5c(cc4ccc23)OCO5)c1OC`
a: 44 ng/mL
